molecular target: MurAA (Enterococcus faecium, UniProt A0A133CTP6); construct: full-length; test: ([…] Å); MST in the presence of UDP-GlcNAc
Sequence (A0A133CTP6 entry or part of it): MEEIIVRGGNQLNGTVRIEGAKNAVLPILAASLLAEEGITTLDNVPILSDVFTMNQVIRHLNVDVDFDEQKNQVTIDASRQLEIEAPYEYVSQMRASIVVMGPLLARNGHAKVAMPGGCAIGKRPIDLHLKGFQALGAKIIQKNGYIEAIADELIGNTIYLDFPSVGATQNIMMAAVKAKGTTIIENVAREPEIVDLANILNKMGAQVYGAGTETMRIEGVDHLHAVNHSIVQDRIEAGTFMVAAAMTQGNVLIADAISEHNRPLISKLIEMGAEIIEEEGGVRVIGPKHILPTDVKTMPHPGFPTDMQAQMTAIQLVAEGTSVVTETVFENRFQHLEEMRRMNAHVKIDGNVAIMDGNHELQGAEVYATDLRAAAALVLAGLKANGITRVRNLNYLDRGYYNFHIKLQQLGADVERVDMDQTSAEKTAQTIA
parameter: pKd
In simple prose, pKd is minus the logarithm base ten of a concentration in moles per litre.

Problem: What value of measured pKd is listed for C[C@@H]1O[C@@H]1P(=O)(O)O [FOS, fosfomycin] ?
Solution: 5.73

* * *

biological target: MurAA^A149E (Enterococcus faecium, UniProt A0A133CTP6, A149E); construct: full-length; experiment: microscale thermophoresis in the presence of UDP-GlcNAc
Sequence (A0A133CTP6 whole entry A149E): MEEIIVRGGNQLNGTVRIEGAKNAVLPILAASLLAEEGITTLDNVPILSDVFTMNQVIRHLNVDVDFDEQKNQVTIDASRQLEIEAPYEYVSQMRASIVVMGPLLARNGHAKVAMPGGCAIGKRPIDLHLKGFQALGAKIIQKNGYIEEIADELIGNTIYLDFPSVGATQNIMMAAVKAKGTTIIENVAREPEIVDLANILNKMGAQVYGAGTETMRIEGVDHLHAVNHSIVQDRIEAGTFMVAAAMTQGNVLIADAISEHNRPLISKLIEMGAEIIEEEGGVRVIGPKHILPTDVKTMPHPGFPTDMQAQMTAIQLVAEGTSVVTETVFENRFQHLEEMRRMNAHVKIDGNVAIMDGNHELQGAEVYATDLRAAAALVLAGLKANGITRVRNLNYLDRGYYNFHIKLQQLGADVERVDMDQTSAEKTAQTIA
parameter: pKd
In simple prose, pKd is minus the logarithm base ten of a concentration in moles per litre.

Problem: What value of measured pKd is listed for C[C@@H]1O[C@@H]1P(=O)(O)O ?
Solution: 6.33
